Test system: OVCAR-5 ovarian
assay.remarks: NCI-60 one-dose screen, 48 h (100 = growth as untreated, 0 = no growth, -100 = all killed)
test.settings: 10 µM unless noted
Compounds without any hit were thinned out: in the full panel of roughly 83,000, 20% have a hit.
Measured growth accompanies every entry in the list below.

compound: COc1ccc(NP2(=O)OCC(C)(N)CO2)cc1 (configuration not stated)
growth (%): 102
//
compound: ClCCN(CCCl)c1nc(Cl)c(C2CC(c3ccc(Cl)cc3)=NN2c2cc(Cl)cc(Cl)c2)s1 (configuration not stated)
growth (%): 108
//
compound: COc1cc(NCCCCCN=C(N)N)c2ncccc2c1
growth (%): 97.3
//
compound: Cc1cccc(N(C)c2cccc3c2C(=O)[Se]C3)c1C
growth (%): 25.5
//
compound: S=P(NC1CCCCC1)(N1CC1)N1CC1
growth (%): 104
//
compound: CC1COC(=O)C1 (configuration not stated)
growth (%): 102
//
compound: CC(C)N=C(NC(C)C)N1CC1
growth (%): 106
//
compound: O=C(O)c1[nH]c(=O)[nH]c(=O)c1F
growth (%): 104
//
compound: CNC(=O)Oc1cccc(N(C)C)c1
growth (%): 102
//
compound: C/C(=N/OC(=O)N(C)C)c1ccc(Cl)cc1Cl
growth (%): 106
//
compound: C/C(=N/OC(=O)N(C)C)c1cc(Cl)ccc1Cl
growth (%): 104
//
compound: O=C(NCCNC(=O)c1ccc([As](O)O)cc1)c1ccc([As](O)O)cc1
growth (%): 114
//
compound: CC(C)(C)[Si](C)(C)OC1[C@@H](O[Si](C)(C)C(C)(C)C)[C@@H](CNC(=O)NC(=O)CF)O[C@H]1n1cnc2c(NC(=O)Nc3ccccc3)ncnc21 (some centres not stated)
growth (%): 91.5
//
compound: O=C(N/N=C/c1ccc([N+](=O)[O-])o1)c1cc([N+](=O)[O-])cc([N+](=O)[O-])c1O
growth (%): 114
//
compound: C[CH2][Pb]([CH2]C)([CH2]C)[O]C(=O)COc1ccccc1
growth (%): -5.58
//
compound: CC1(C)N=C(N)N=C(N)N1c1ccc(CCCCc2ccc(S(=O)(=O)F)cc2)cc1
growth (%): 41.2
//
compound: O=C(O)C1[O][Sb][O]C1C(=O)O (configuration not stated)
growth (%): 120
//
compound: CC(C)CCC[C@@H](C)[C@H]1CC[C@H]2[C@@H]3CC=C4C[C@@H](OC(=O)Cc5ccc(N(CCCl)CCCl)cc5)CC[C@]4(C)[C@H]3CC[C@]12C
growth (%): 98.2
//
compound: COc1cc(C2=NN(c3ccccc3)C(c3sc(N(CCCl)CCCl)nc3Cl)C2)cc(OC)c1OC (configuration not stated)
growth (%): 99.5
//
compound: O=C(CI)Nc1ccc(Br)cc1
growth (%): 94.9
//
compound: O=C(O)C1(Br)CC12c1ccccc1-c1ccccc12 (configuration not stated)
growth (%): 104
//
compound: ClCCN(CCCl)c1ccc(/C=C\c2ccnc3ccccc23)cc1
growth (%): 119

====

Tested on: RXF 393 renal
assay.remarks: NCI-60 one-dose screen, 48 h (100 = growth as untreated, 0 = no growth, -100 = all killed)
test.settings: 10 µM unless noted
The panel holds about 83,000 compounds, 20% with a hit somewhere; the sample as a whole holds those more often.
readout.kind: growth (%)

molecule: COC1=CC(=O)OC(CCc2ccc3c(c2)OCO3)C1 (configuration not stated)
readout.kind: growth
measured.number: 70.2
--
molecule: CNC(=O)Oc1ccccc1-c1ccccc1
readout.kind: growth
measured.number: 120
--
molecule: CC1(C)N=C(N)N=C(N)N1c1ccc(CCCCc2ccc(Cl)cc2S(=O)(=O)F)c(Cl)c1
readout.kind: growth
measured.number: 29.6
--
molecule: c1ccc2nc(OCCN3CC3)ccc2c1
readout.kind: growth
measured.number: 59.1
--
molecule: CC(=O)C1C(=O)N(C)C(=O)N(C)C1=O
readout.kind: growth
measured.number: 107
--
molecule: OC1CCCCC1N1CCC(c2ccccc2)CC1 (configuration not stated)
readout.kind: growth
measured.number: 124
--
molecule: COc1ccc2c(c1)NC1=C(C(=O)OC1)C2c1cc(OC)c(OC)c(OC)c1 (configuration not stated)
readout.kind: growth
measured.number: 36.7
--
molecule: O=C1NC2(CCNCC2)Nc2ccccc21
readout.kind: growth
measured.number: 111
--
molecule: CCCCOC(=O)c1ccccc1C(=O)O.CCCCOC(=O)c1ccccc1C(=O)O.[Cu+2]
readout.kind: growth
measured.number: 116
--
molecule: CC12CCC(=O)C=C1C(O)CC1C2CCC2(C)C(O)CCC12 (configuration not stated)
readout.kind: growth
measured.number: 113
--
molecule: N#C[Se]CCCNS(=O)(=O)C1CC2C=CC1C2 (configuration not stated)
readout.kind: growth
measured.number: -90
--
molecule: Cc1ccc(C(=O)C2CN(C)CCC2(O)c2ccc(C)cc2)cc1 (configuration not stated)
readout.kind: growth
measured.number: 128

====

Test system: HL-60(TB) leukemia
assay.remarks: NCI-60 one-dose screen, 48 h
test.settings: 10 µM unless noted
The panel holds about 83,000 compounds, 20% with a hit somewhere; the sample as a whole holds those more often. The source made the active and inactive calls. The calls were made as follows: active = growth percent below 10; inactive = the rest.
Outcomes: active, inactive

compound: CC[C@@H](C(=O)[C@@H](C)[C@@H](O)[C@H](C)[C@@H]1O[C@@H]([C@@H](CC)C(=O)N(CC)CC)CC[C@@H]1C)C1O[C@]2(C=CC(=O)[C@]3(CC[C@@](C)([C@H]4CC[C@](O)(CC)[C@H](C)O4)O3)O2)[C@H](C)C[C@@H]1C (some centres undefined)
label.class: active

compound: O=c1[nH][n+](-c2ccc(Br)cc2)no1
label.class: inactive

compound: CCOC(=O)C1=C(c2ccccc2)N=C2SC=C(c3ccc(Cl)cc3)N2C1c1ccc(Br)cc1 (centres undefined)
label.class: inactive

compound: C#CC#CC#CC#CC#CC#CC#CC#CCC1OC[C@H](COC(=O)O[C@@H](C(=O)O[C@H]2C[C@@]3(O)[C@@H](OC(=O)c4ccccc4)[C@@H]4[C@]5(OC(C)=O)CO[C@@H]5C[C@H](O)[C@@]4(C)C(=O)[C@H](OC(C)=O)C(=C2C)C3(C)C)[C@@H](NC(=O)c2ccccc2)c2ccccc2)O1 (some centres undefined)
label.class: active

compound: CC1(C)C(=O)CC[C@]2(C)[C@H]3C(=O)C=C4[C@@H]5C[C@@](C)(C(=O)NCCNCCN)CC[C@]5(C)CC[C@@]4(C)[C@]3(C)CC[C@@H]12
label.class: inactive

compound: C=CCSc1nnc(-c2ccc(C(C)(C)C)cc2)n1-c1cccc(C(F)(F)F)c1
label.class: active

compound: COc1ccc2nc(-c3ccc(Cl)cc3)cc(C(=O)N3N=C(c4ccc(N)cc4)CC3c3ccccc3)c2c1 (centres undefined)
label.class: active

compound: C[C@]12CCc3c(ccc4cc(O)ccc34)[C@@H]1C[C@H](O)[C@@H]2O
label.class: inactive

compound: O=C(N/N=C\c1cc(Cl)ccc1O)N/N=C/c1cc(Cl)ccc1O
label.class: active

compound: c1cc2nc(-c3cn[nH]c3)c3c(c2cc1-c1cn[nH]c1)C1CCC3C1 (centres undefined)
label.class: inactive

compound: CN1CCN(c2ccc(-c3ccc4ncc(C#N)c(Nc5ccc(F)c(Cl)c5)c4c3)cc2)CC1
label.class: inactive

compound: COc1ccc(-c2cc(-c3ccc(Cl)cc3)nc(NCCCCNc3ccnc4cc(Cl)ccc34)n2)cc1
label.class: inactive

compound: Cc1ccc(/C=C2\C(=O)N(C)c3ccc(S(=O)(=O)Nc4ccc(C(C)(C)C)cc4)cc32)s1
label.class: inactive

compound: CC(C)CC1C(=O)N2CCC[C@H]2C2(O)O[C@](NC(=O)C3C=C4c5cccc6[nH]c(Br)c(c56)C[C@H]4N(C)C3)(C(C)C)C(=O)N12 (some centres undefined)
label.class: active

compound: CN(Cc1cnc2nc(N)nc(N)c2n1)c1ccc(C(=O)NC(CCC(=O)O)C(=O)O)cc1Br (centres undefined)
label.class: inactive

compound: CC(Oc1ccc(C(=O)O)cc1C(F)(F)F)c1ccc(Oc2ccccc2)cn1 (centres undefined)
label.class: inactive

compound: O=C(c1ccc(N2CCOCC2)cc1[N+](=O)[O-])N1CCOCC1
label.class: inactive

compound: C=C1C(=O)O[C@H]2[C@H]1CC/C(COC(=O)c1ccc(Cl)nc1)=C\CC[C@@]1(C)O[C@@H]21
label.class: active

compound: C=C1CC[C@@H]2[C@](C)(COC(C)=O)[C@H](OC(C)=O)CC[C@@]2(C)[C@@H]1CC(Nc1ccc(S(=O)(=O)Nc2ccc(Cl)nn2)cc1)C1=CCOC1=O (some centres undefined)
label.class: active

compound: O=C(Oc1ccc([N+](=O)[O-])cc1)c1ccc(CBr)cc1
label.class: inactive

compound: COc1cc2c(Nc3ccc(-c4ccc(N)cc4)cc3)ncnc2c(OC)c1OC
label.class: inactive

compound: O=C(OC12CC3CC(CC(C3)C1)C2)c1ccc(NCc2cc(O)ccc2O)cc1
label.class: active

compound: NC(=O)c1c(NC(=O)c2ccc3ccccc3c2)sc2c1CCC(=O)C2
label.class: inactive

compound: N#Cc1ccc(-n2nnc3ccccc32)cc1C#N
label.class: inactive

compound: COc1ccc(-c2cc(-c3nnc(SCC(=O)Nc4ccc(C(C)=O)cc4)o3)c3ccccc3n2)cc1
label.class: inactive

compound: C/C(=N\NC(=O)c1ccncc1)c1ccc(N)cc1
label.class: inactive

compound: COc1ccc(/C=N/NC(=O)CN2CCN(c3cc4c(cc3F)c(=O)c(C(=O)O)cn4C3CC3)CC2)cc1O
label.class: inactive

compound: Cc1cc(C)cc(OCC(=O)O)c1
label.class: inactive

compound: COc1ccc(Nc2nccc(Nc3ccc4[nH]ncc4c3)n2)cc1
label.class: inactive

compound: CN1CCN(CCCOc2cccc3nc(Nc4cc(Cl)cc(Cl)c4)ccc23)CC1
label.class: inactive

compound: CC(C)C[C@H](NC(=O)[C@H](Cc1ccccc1)n1ccc(N2CCCCC2)cc1=O)B(O)O
label.class: active

compound: COC(=O)[C@]12CC[C@@H](C)[C@H](C)[C@@H]1C1=CC[C@@H]3[C@@]4(C)C=C(O)C(=O)C(C)=C4CC[C@@]3(C)[C@]1(C)CC2
label.class: active

compound: O=C(COc1cccc(/C=C2\COc3ccccc3C2=O)c1)Nc1nccs1
label.class: active

compound: COc1ccc(C2=NN(C=O)C(c3ccc(Oc4nc5c(c(=O)n(C)c(=O)n5C)n4C)c(OC)c3)C2)cc1 (centres undefined)
label.class: inactive
